# protocol-description: Toxicity to Calu-3 human lung epithelial cells
# Type: cell-based
# condition-details: Calu-3 cells, 48 hours after treatment, read-out: CC50 (50% cytotoxic concentration)
Where a name gives a salt, the structure may show the parent alone.
parameter-measured: CC50 at 48 h (µM)
Give just the numeric value; µM need not be written.

Given CCCc1c(-c2ccccc2)nn(-c2ccccn2)c1O [Compound 1, hydrochloride] , respond with its CC50 at 48 h.
164

###

# protocol-description: Toxicity to Calu-3 human lung epithelial cells
# Type: cell-based
# condition-details: Calu-3 cells, 24 hours after treatment, read-out: CC50 (50% cytotoxic concentration)
# Description: In order to analyze the antiviral activity of the compounds of the synthetic examples, real-time qRT-PCR (quantitative RT-PCR) was perfumed using severe acute respiratory syndrome coronavirus 2 (SARS-CoV2) and Calu-3 cells, which are human lung epithelial cells. Human lung epithelial cells (Calu-3) were cultured in Dulbecco's Modified Eagle Medium (DMEM) at 37° C. under 5% CO2. The concentration of Compound 1 was 15, 12.5, 6.25, 3.125, 1.563, 0.781, 0.391, 0.195, 0.098, 0.049, 0.024, 0.012 μM. […]
Structures can show the parent of a compound that is named as a salt.
parameter-measured: CC50 at 24 h (µM)
Give just the numeric value; µM need not be written.

Given CCCc1c(-c2ccccc2)nn(-c2ccccn2)c1O [Compound 1, hydrochloride] , respond with its CC50 at 24 h.
435

###

# Test system: severe acute respiratory syndrome coronavirus 2 (SARS-CoV2)
# protocol-description: Antiviral activity against SARS-CoV2 in Calu-3 cells, real-time qRT-PCR
# Format: cell-based
# condition-details: Severe acute respiratory syndrome coronavirus 2; SARS-CoV2 in Calu-3 cells, 48 hours after treatment; read-out: IC50 (50% inhibition concentration), antiviral efficacy
Where a name gives a salt, the structure may show the parent alone.
parameter-measured: pIC50
By convention, pIC50 is the negative base-10 log of a molar concentration.

Given CCCc1c(-c2ccccc2)nn(-c2ccccn2)c1O [Compound 1, hydrochloride] , respond with its pIC50.
5.78
